target: human CB2 receptor (hCB2) (Homo sapiens, UniProt P34972); assay: cell-based; assay type: cell-based; conditions: intracellular cAMP, CHO-K1 cells, NKH-477 prestimulated; + agonist, − inverse agonist
Sequence (P34972 whole entry): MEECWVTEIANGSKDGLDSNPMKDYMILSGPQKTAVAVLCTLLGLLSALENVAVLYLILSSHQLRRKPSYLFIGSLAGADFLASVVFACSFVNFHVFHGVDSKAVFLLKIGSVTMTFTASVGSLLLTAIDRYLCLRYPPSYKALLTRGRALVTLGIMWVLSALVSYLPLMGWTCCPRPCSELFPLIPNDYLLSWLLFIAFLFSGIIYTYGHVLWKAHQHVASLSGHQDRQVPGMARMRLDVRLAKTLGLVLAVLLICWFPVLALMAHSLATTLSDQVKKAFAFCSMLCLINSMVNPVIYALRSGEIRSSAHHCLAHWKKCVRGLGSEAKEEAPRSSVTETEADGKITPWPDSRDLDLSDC
property label: hCB2 EC50 range

# input smiles, measurement
measured = [
    ("O=S(=O)(c1ccc(F)cc1)N1CCSc2ccc(-c3ncc(-c4ccccc4)[nH]3)cc21", "+C"),
    ("CC(C)(C)NC(=O)c1ccc2c(c1)N(S(=O)(=O)c1ccccc1)CCC(C)(C)S2", "+D"),
    ("O=C(NNC(=O)c1ccc2c(c1)N(S(=O)(=O)c1ccc(C(F)(F)F)cc1)CCS2)c1ccccc1", "+D"),
    ("CC1(C)CCN(S(=O)(=O)c2ccc(F)cc2)c2cc(C(=O)NC3CCCC3)ccc2S1", "+E"),
    ("CC(C)NC(=O)c1ccc2c(c1)N(C(=O)c1ccc(Cl)cc1)CCS2", "+D"),
]

Q) For the compound shown here, `CC(=O)N1CCSc2ccc(C(=O)NC3CCCC3)cc21` , give the reported hCB2 EC50 range.
A) +E

Q) // repeat for `CC(C)(C)NC(=O)c1ccc2c(c1)N(S(=O)(=O)c1ccccc1)CCS2` and report
A) +B

Q) // repeat for `COc1ccc(C(=O)N2CCSc3ccc(C(=O)NCC(C)C)cc32)cc1` and report
A) −E

Q) // repeat for `CC(C)(C)c1noc(-c2ccc3c(c2)N(S(=O)(=O)c2ccc(C(F)(F)F)cc2)CCS3)n1` and report
A) +B

Q) // repeat for `O=S(=O)(c1ccc(C(F)(F)F)cc1)N1CCSc2ccc(-c3nc4ccccc4o3)cc21` and report
A) +C

Q) // repeat for `O=C(NC1CCCC1)c1ccc2c(c1)N(S(=O)(=O)c1ccc(Cl)cc1)CCO2` and report
A) +B

---

Target: UniProt:Q9QZN9
Sequence (Q9QZN9 1-360): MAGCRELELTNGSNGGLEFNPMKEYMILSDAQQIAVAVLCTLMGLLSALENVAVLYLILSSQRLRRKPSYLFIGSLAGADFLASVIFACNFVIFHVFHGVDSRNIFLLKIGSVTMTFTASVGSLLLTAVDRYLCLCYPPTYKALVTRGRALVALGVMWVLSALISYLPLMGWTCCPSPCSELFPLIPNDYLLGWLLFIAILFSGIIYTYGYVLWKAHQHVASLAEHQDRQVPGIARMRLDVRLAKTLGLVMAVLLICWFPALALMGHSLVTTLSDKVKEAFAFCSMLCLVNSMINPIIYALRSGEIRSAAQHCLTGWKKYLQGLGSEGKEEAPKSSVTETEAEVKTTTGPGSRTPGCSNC
Test: cell-based
Conditions: intracellular cAMP, CHO-K1 cells, NKH-477 prestimulated; + agonist, − inverse agonist; read-out: rCB2 EC50 range
pEC50: −log10 of the molar value.
property label: pEC50

Q) Request: pEC50, test system UniProt:Q9QZN9, entry `Cc1ccc(C(=O)N2CCSc3ccc(C(=O)NC4CCCC4)cc32)cc1`
A) < 5.00

Q) // repeat for `O=S(=O)(c1ccccc1)N1CCSc2ccc(-c3nc(-c4ccccn4)no3)cc21` and report
A) < 5.00

---

Target: rat CB2 receptor (rCB2) (Rattus norvegicus, UniProt Q9QZN9)
Sequence (Q9QZN9 1-360): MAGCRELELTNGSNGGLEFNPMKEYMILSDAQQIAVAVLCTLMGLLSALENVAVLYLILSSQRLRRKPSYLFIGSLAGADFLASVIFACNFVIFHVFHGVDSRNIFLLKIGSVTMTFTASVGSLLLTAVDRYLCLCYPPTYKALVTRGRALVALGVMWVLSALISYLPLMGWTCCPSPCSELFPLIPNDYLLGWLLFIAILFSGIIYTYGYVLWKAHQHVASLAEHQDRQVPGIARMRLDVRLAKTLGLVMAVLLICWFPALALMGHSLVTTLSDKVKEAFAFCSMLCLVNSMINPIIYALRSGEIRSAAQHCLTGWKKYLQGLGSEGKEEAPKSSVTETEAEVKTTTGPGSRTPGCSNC
Assay: cell-based
Type: cell-based
Conditions: intracellular cAMP, CHO-K1 cells, NKH-477 prestimulated; + agonist, − inverse agonist
property label: rCB2 EC50 range

Below, each entry is followed by its recorded rCB2 EC50 range result.
# compound, measurement
measured = [
    ("O=C(NC12CC3CC(CC(C3)C1)C2)c1ccc2c(c1)N(C(=O)c1ccccc1)CCS2 [Example 21]", "−D"),
    ("CC(C)CNC(=O)c1ccc2c(c1)N(S(C)(=O)=O)CCS2 [Example 54]", "+D"),
    ("O=S(=O)(c1ccc(C(F)(F)F)cc1)N1CCSc2ccc(-c3nc(-c4ccccn4)no3)cc21 [Example 81]", "+A"),
    ("CC1(C)CCN(S(=O)(=O)c2ccc(F)cc2)c2cc(C(=O)N3CCCC3)ccc2S1 [Example 102]", "+C"),
    ("O=C(NC12CC3CC(CC(C3)C1)C2)c1ccc2c(c1)N(C(=O)c1ccc(F)cc1)CCS2 [Example 22]", "−D"),
]

Q) For the compound shown here, O=C(NC1CCCC1)c1ccc2c(c1)N(S(=O)(=O)c1ccc(F)cc1)CCO2 [Example 62] , give the reported rCB2 EC50 range.
A) +A

Q) // repeat for O=C(NC1CCCC1)c1ccc2c(c1)N(C(=O)c1ccc(Cl)cc1)CCS2 [Example 15] and report
A) −E

Q) // repeat for O=C(NNC(=O)c1ccc2c(c1)N(S(=O)(=O)c1ccc(F)cc1)CCS2)c1ccccc1 [Example 78] and report
A) +D

---

target: rat CB2 receptor (rCB2) (Rattus norvegicus, UniProt Q9QZN9); test: cell-based; format: cell-based; settings: intracellular cAMP, CHO-K1 cells, NKH-477 prestimulated; + agonist, − inverse agonist
property label: rCB2 EC50 range

# input smiles, property label, measurement
records = [
    ("CC(C)(C)NC(=O)c1ccc2c(c1)N(C(=O)c1ccc(Cl)cc1)CCS2", "rCB2 EC50 range", "+D"),
    ("O=C(c1ccc2c(c1)N(S(=O)(=O)c1ccc(F)cc1)CCS2)N1CCOCC1", "rCB2 EC50 range", "+C"),
    ("CC1(C)CCN(S(=O)(=O)c2ccc(F)cc2)c2cc(C(=O)NCC3CCOCC3)ccc2S1", "rCB2 EC50 range", "−C"),
    ("COCCCNC(=O)c1ccc2c(c1)N(C(=O)c1ccc(C)cc1)CCS2", "rCB2 EC50 range", "−E"),
    ("CC1(C)CCN(S(=O)(=O)c2ccc(F)cc2)c2cc(C(=O)NC3CCCC3)ccc2S1", "rCB2 EC50 range", "−C"),
    ("COc1ccc(C(=O)N2CCSc3ccc(C(=O)NCC(C)C)cc32)cc1", "rCB2 EC50 range", "−E"),
    ("O=C(c1ccc2c(c1)N(S(=O)(=O)c1ccccc1)CCS2)N1CCCC1", "rCB2 EC50 range", "+D"),
]

Q) For the compound shown here, `COc1ccc(C(=O)N2CCSc3ccc(C(=O)NC4CCCC4)cc32)cc1` , give the reported rCB2 EC50 range.
A) −D

---

target: human CB1 receptor (hCB1) (Homo sapiens); test: cAMP assay (LANCE TR-FRET) in CHO-K1 cells expressing hCB1; type: cell-based; details: intracellular cAMP, NKH-477 prestimulated, + agonist, − inverse agonist
Sequence (P21554 whole entry): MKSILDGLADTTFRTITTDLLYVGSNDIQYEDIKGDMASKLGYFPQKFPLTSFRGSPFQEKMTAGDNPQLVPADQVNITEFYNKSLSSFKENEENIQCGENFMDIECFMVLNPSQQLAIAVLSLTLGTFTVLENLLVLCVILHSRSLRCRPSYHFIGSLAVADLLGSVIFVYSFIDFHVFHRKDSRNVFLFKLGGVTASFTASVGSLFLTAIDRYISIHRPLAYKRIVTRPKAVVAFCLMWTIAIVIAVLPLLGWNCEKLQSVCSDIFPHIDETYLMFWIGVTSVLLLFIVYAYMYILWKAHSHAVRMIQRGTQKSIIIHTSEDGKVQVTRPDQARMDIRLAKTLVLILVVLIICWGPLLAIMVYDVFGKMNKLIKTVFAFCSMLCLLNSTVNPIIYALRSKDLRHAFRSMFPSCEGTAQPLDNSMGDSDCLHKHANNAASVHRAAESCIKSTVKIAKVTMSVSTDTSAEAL
property label: hCB1 EC50 range

Below, each entry is followed by its recorded hCB1 EC50 range result.
# molecule, hCB1 EC50 range
records = [
    ("CC1(C)CCN(S(=O)(=O)c2ccc(F)cc2)c2cc(C(=O)NC3CCCC3)ccc2S1 [Example 101]", "−E"),
    ("O=C(NC1CCCC1)c1ccc2c(c1)N(S(=O)(=O)c1ccc(F)cc1)CCO2 [Example 62]", "+D"),
    ("COc1ccc(C(=O)N2CCSc3ccc(C(=O)NC(C)(C)C)cc32)cc1 [Example 7]", "−E"),
    ("C[C@@H](NC(=O)c1ccc2c(c1)N(S(=O)(=O)c1ccccc1)CCC(C)(C)S2)C(C)(C)C [Example 97]", "−D"),
    ("O=C(NC12CC3CC(CC(C3)C1)C2)c1ccc2c(c1)N(C(=O)c1ccccc1)CCS2 [Example 21]", "−E"),
]

Q) Request: hCB1 EC50 range, test system human CB1 receptor (hCB1) (Homo sapiens), entry CC(C)C(=O)N1CCSc2ccc(C(=O)NC34CC5CC(CC(C5)C3)C4)cc21 [Example 40]
A) −E

Q) // repeat for CC(C)CNC(=O)c1ccc2c(c1)N(C(=O)c1ccccc1)CCS2 [Example 2] and report
A) −E

Q) // repeat for CCc1noc(-c2ccc3c(c2)N(S(=O)(=O)c2ccc(F)cc2)CCS3)n1 [Example 90] and report
A) +D

Q) // repeat for CC(C)CNC(=O)c1ccc2c(c1)N(S(=O)(=O)c1ccc(F)cc1)CCS2 [Example 43] and report
A) +D

Q) // repeat for Cc1ccc(C(=O)N2CCSc3ccc(C(=O)NCC(C)C)cc32)cc1 [Example 4] and report
A) −E
